Binding to FcγRIIB (ELISA) values by entry
# assayed.target: T1, soluble dimeric FcγRIIB (extracellular domain fused to hinge-CH2-CH3 of human IgG2) (human, UniProt P31994 43-217)
# T1 construct: extracellular domain; also called FcRIIB; FcRIIB-Fc; not shown: human IgG2 hinge-CH2-CH3
# T1 sequence (looked up): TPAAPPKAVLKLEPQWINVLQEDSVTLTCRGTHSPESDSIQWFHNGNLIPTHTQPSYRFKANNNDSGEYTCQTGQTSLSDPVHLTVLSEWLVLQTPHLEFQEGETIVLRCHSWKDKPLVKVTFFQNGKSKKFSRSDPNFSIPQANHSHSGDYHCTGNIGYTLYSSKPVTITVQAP
# test.method.notes: ELISA
Provide the reading as a plain figure in fold increase.

- binder: "IgG1 Fc mutant P247L, W313R, E388G (antibody) heavy: ASTKGPSVFPLAPSSKSTSGGTAALGCLVKDYFPEPVTVSWNSGALTSGVHTFPAVLQSSGLYSLSSVVTVPSSSLGTQTYICNVNHKPSNTKVDKKVEPKSCDKTHTCPPCPAPELLGGPSVFLFPPKLKDTLMISRTPEVTCVVVDVSHEDPEVKFNWYVDGVEVHNAKTKPREEQYNSTYRVVSVLTVLHQDRLNGKEYKCKVSNKALPAPIEKTISKAKGQPREPQVYTLPPSRDELTKNQVSLTCLVKGFYPSDIAVEWESNGQPGNNYKTTPPVLDSDGSFFLYSKLTVDKSRWQQGNVFSCSVMHEALHNHYTQKSLSLSPGK"
  value.type: "Binding to FcγRIIB (ELISA)"
  measurement.units: "fold increase"
  reported.result: 1

Please turn your attention to the following entry.
Input line: So what does the record say about Binding to FcγRIIB (ELISA) for IgG1 Fc mutant P244H, L358M, V379M, N384K, V397M (antibody) heavy: ASTKGPSVFPLAPSSKSTSGGTAALGCLVKDYFPEPVTVSWNSGALTSGVHTFPAVLQSSGLYSLSSVVTVPSSSLGTQTYICNVNHKPSNTKVDKKVEPKSCDKTHTCPPCPAPELLGGPSVFLFHPKPKDTLMISRTPEVTCVVVDVSHEDPEVKFNWYVDGVEVHNAKTKPREEQYNSTYRVVSVLTVLHQDWLNGKEYKCKVSNKALPAPIEKTISKAKGQPREPQVYTLPPSRDEMTKNQVSLTCLVKGFYPSDIAMEWESKGQPENNYKTTPPMLDSDGSFFLYSKLTVDKSRWQQGNVFSCSVMHEALHNHYTQKSLSLSPGK ?
Output line: 1.5
